Recorded values, source patent US6545009B1.

Reported metric: melting point

COC(=O)c1ccc(-c2nc(-c3ccc(Cl)s3)co2)cc1 : 189 to 190 °C
COC(=O)c1ccc(-c2nc(-c3cccc(C(F)(F)F)c3)co2)cc1 : 134 to 135 °C
O=C(O)c1ccc(-c2csc(-c3cccnc3)n2)cc1 : > 300 °C
Br.COC(=O)c1ccc(-c2nc(-c3ccccn3)cs2)cc1 : 243 to 244 °C
CCOC(=O)c1ccc(-c2csc(-c3ccc(C(F)(F)F)cc3)n2)cc1 : 163 to 164 °C
Br.CCOC(=O)c1ccc(-c2csc(-c3ccncc3)n2)cc1 [Example 105] : 247 to 248 °C

As a next step, examine the compound that follows.
Query O=C(O)c1ccc(-c2csc(-c3ccccc3)n2)cc1 [Reference Example 9, 4-(2-phenyl-4-thiazolyl]benzoic acid] yields melting point of 245 to 248 °C
